- measurement_notes: Pharmacokinetics in Sprague-Dawley rats
- Format: in vivo, rat
- experimental_conditions: male, Sprague-Dawley, rat, plasma, po, 100 mg/kg
property: half-life

Input: Quick one: half-life for CC(=O)CC(=O)C1CC(C)C(=O)C1=O (stereo not shown) ?
Output: 30 to 60 min

---

Please provide measured Inflammatory factor TNF-α for the entries that follow.
- System: TNF-α
- measurement_notes: TNF-α level in supernatant of LPS-induced RAW264.7 cells
- Format: cell-based
- experimental_conditions: RAW264.7 cells supernatant, LPS 1 μg/mL, 1 μM, 48 h
Please give a number only; it is taken to be in pg/L.

Input: So what does the record say about Inflammatory factor TNF-α for CC(=O)CC(=O)C1CCC(C(C)=O)C1=O (stereo not shown) ?
Output: 424.5

Input: One more molecule: CN(Cc1cnc2nc(N)nc(N)c2n1)c1ccc(C(=O)N[C@@H](CCC(=O)O)C(=O)O)cc1 [methotrexate, reference compound]
Output: 236.8

Input: Thanks! And CCCCCC1C(=O)C(C(=O)CC(C)=O)CC1CC(=O)OC (stereo not shown) ?
Output: 400.6

Input: Same thing, different molecule: COC(=O)C1CCC(C(=O)CC(C)=O)C1=O (stereo not shown)
Output: 339.8

Input: Request: CCOC(=O)C1CCC(C(=O)CC(C)=O)C1=O (stereo not shown)
Output: 524.7

Input: Would you mind doing CC(=O)CC(=O)C1CC(C)C(=O)C1=O (stereo not shown) as well?
Output: 217.8

Input: Also, CC(=O)CC(=O)C1CCCC1=O (stereo not shown) please.
Output: 520.6
